Reference source: patent US20240132624A1

- Target or system: T1, human FcRn/b2M (human, UniProt P61769 21-119, biotinylated)
- T1 construct: bought recombinant biotinylated protein (ACRO FCM-H82W4 or Immunitrack ITF01); also called hFcRn; hFcRn/hb2M
- T1 sequence (chain, as listed by the source limits assumed, chain 1 of 2): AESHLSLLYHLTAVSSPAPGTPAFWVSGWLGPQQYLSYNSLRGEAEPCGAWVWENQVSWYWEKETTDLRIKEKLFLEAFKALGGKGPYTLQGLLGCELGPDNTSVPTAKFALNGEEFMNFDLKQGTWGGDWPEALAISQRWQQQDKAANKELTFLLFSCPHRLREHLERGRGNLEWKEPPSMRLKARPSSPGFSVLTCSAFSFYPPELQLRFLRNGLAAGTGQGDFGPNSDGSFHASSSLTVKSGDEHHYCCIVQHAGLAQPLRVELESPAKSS
- T1 sequence (P61769 21-119 limits assumed, chain 2 of 2): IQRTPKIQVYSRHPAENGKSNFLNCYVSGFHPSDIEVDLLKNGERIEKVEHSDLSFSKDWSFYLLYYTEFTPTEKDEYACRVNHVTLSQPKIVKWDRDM
- Assay overview: SPR pH 6.0;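 note: surface plasmon resonance kinetics at 25 °C, diluted periplasmic extracts injected over immobilized ligand surfaces, 120 s association then 600–3600 s dissociation, running buffer containing 150 mM NaCl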
Can you tell me koff for the items I'm about to list?
Answers are plain numbers, in s⁻¹.

Below are worked cases with known answers.
[[record]]
binder = "T0263018B11 S31T (VHH, name in Kabat numbering, FLAG3-His6 tagged) VHH: EVQLVESGGGVVQPGGSLRLSCAASGFTFSTYAMYWVRQAPGKGLEWVSAISSGGGSTDYADSVKGRFTISRDNSKNTLYLQMNSLRPEDTALYYCAADTLYTSLTWYSYWGQGTLVTVSS"
quantitative_result = 0.00052

[[record]]
binder = "T0263018B11 A33H (VHH, name in Kabat numbering, FLAG3-His6 tagged) VHH: EVQLVESGGGVVQPGGSLRLSCAASGFTFSSYHMYWVRQAPGKGLEWVSAISSGGGSTDYADSVKGRFTISRDNSKNTLYLQMNSLRPEDTALYYCAADTLYTSLTWYSYWGQGTLVTVSS"
quantitative_result = 0.00076

[[record]]
binder = "T0263018B11 Y102T (VHH, name in Kabat numbering, FLAG3-His6 tagged) VHH: EVQLVESGGGVVQPGGSLRLSCAASGFTFSSYAMYWVRQAPGKGLEWVSAISSGGGSTDYADSVKGRFTISRDNSKNTLYLQMNSLRPEDTALYYCAADTLYTSLTWYSTWGQGTLVTVSS"
quantitative_result = 0.0017


# context switch: different binder, same koff
# koff (binder: T0263018B11 S30E (VHH, name in Kabat numbering, FLAG3-His6 tagged) VHH: EVQLVESGGGVVQPGGSLRLSCAASGFTFESYAMYWVRQAPGKGLEWVSAISSGGGSTDYADSVKGRFTISRDNSKNTLYLQMNSLRPEDTALYYCAADTLYTSLTWYSYWGQGTLVTVSS ) is 0.0019
